# studySystem: p-EGFR Del19/C797S (H1975-clone #23 cells) (Homo sapiens, UniProt P00533)
# Sequence (P00533 with tags, fused parts or gaps DEL746-750/C797S, form open): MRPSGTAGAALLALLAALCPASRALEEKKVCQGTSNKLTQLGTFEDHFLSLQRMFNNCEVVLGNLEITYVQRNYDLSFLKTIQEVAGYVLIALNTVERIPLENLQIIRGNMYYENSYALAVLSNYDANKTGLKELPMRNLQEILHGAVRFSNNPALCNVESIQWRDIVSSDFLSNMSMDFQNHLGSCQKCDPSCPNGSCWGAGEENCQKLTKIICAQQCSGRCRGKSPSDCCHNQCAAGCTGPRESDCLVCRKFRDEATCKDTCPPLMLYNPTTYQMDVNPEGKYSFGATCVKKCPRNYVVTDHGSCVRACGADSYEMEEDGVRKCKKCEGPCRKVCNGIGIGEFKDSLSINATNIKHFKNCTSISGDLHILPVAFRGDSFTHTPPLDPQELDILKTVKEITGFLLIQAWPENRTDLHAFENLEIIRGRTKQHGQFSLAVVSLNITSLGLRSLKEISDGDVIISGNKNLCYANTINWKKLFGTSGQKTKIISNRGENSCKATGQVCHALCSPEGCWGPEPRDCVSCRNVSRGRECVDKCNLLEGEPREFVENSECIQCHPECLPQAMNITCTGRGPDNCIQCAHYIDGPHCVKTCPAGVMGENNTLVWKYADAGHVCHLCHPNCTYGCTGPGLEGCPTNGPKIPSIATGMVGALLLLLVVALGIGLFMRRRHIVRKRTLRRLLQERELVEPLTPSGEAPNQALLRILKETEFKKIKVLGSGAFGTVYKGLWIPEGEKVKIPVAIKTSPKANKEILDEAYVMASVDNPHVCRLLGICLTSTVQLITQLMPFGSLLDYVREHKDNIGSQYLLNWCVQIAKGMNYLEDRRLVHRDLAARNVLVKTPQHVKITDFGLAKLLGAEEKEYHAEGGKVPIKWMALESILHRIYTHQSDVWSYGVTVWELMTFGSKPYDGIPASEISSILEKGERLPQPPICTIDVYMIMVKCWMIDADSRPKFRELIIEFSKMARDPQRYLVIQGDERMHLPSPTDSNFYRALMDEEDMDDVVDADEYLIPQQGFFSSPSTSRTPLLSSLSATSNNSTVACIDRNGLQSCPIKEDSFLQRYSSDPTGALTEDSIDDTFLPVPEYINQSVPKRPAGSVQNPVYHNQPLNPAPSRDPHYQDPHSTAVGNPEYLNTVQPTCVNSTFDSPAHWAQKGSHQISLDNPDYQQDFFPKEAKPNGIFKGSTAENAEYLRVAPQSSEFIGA
# measurementDescription: Cell p-EGFR inhibition assay, HTRF, H1975-clone#23 (DEL19/C797S) cells
# conditionContext: 16 h treatment, pEGFR inhibition
pIC50: −log10 of the molar value.
readoutKind: pIC50

Answered cases to consult:
Cc1cc2cc(n1)-c1c(C)nn(C)c1OC[C@H]1CC[C@H](C1)CN1/C(=N/C2=O)Nc2ccc(N3C[C@@H](C)N(C4CCN(c5cc(F)c([C@H]6CCC(=O)NC6=O)c(F)c5)CC4)C[C@@H]3C)cc21 [Example 200]: 8.75
COC[C@@H]1CN(c2ccc3c(c2)N2C[C@@H]4CC[C@H](COc5c(cnn5C)-c5cc(cc(C)n5)C(=O)/N=C/2N3)C4)CCN1CC1CN(c2ccc3c(c2)C(=O)N(C2CCC(=O)NC2=O)C3=O)C1 (stereo partly shown) [Example 69]: 8.74
COC[C@@H]1CN(c2ccc3c(c2)N2CC4CC[C@H](COc5c(cnn5C)-c5cc(cc(C)n5)C(=O)/N=C/2N3)C4)CCN1CC1CN(c2cc(F)c([C@H]3CCC(=O)NC3=O)c(F)c2)C1 [Example 86]: 8.52
COCCn1nc(C)c2c1OC[C@H]1CC[C@H](C1)CN1/C(=N/C(=O)c3cc(C)nc-2c3)Nc2ccc(N3CCN(C4CCN(c5cc(F)c([C@H]6CCC(=O)NC6=O)c(F)c5)CC4)[C@@H](COC)C3)cc21 [Example 160]: 9.23
Cc1cc2cc(n1)-c1c(C)nn(C)c1OC[C@H]1CCC(C1)CN1/C(=N/C2=O)Nc2ccc(N3CCN(C4CCN(c5ccc(C6CCC(=O)NC6=O)nc5C)CC4)CC3)cc21 (stereo partly shown) [Example 72]: 9.22

(P) COC[C@@H]1CN(c2ccc3c(c2)N2CC4CC[C@H](COc5c(cnn5C)-c5cc(cc(C)n5)C(=O)/N=C/2N3)C4)CCN1C1CCN(c2ccc(NC3CCC(=O)NC3=O)cc2C)CC1 (stereo partly shown) [Example 118]
(Q) Cc1cc2cc(n1)-c1cnn(C)c1OC[C@H]1CC[C@H](C1)CN1/C(=N/C2=O)Nc2ccc(N3CCN(C4CCN(c5ccc([C@H]6CCC(=O)NC6=O)nc5C)CC4)[C@H](C)C3)cc21 [Example 162]
(R) Cc1cc2cc(n1)-c1cnn(C)c1OC[C@H]1CCC(C1)CN1/C(=N/C2=O)Nc2ccc(N3CCC(N4CCC(Oc5cc(F)c([C@H]6CCC(=O)NC6=O)c(F)c5)CC4)CC3)cc21 [Example 113]
(S) COc1cc2c(cc1N1CCN(C3CCN(c4cc(F)c([C@H]5CCC(=O)NC5=O)c(F)c4)CC3)CC1)N1C[C@@H]3CC[C@H](COc4c(c(C)nn4C)-c4cc(cc(C)n4)C(=O)/N=C/1N2)C3 [Example 152]
List the 4 entries from lowest pIC50 to highest pIC50 value. Use the labels to give the ranking in the order requested. S, P, R, Q
